# experiment_notes: Method for Testing Solubilization: time required for completely dissolving crushed α-APM sample in water
# Type: physicochemical
# condition_details: Table 2; 250 mg in 250 ml purified water, 26±2° C., stirring/standing every 30 seconds
Residues, ends and D or L forms follow the SMILES beside them.
metric: Solubilization (min), Table 2
Just the number please, in min, no unit attached.

Which Solubilization (min), Table 2 value belongs to COC(=O)[C@H](Cc1ccccc1)NC(=O)[C@@H](N)CC(=O)O [Example 19] (H-Asp-Phe-OMe) ?
5.5

Which Solubilization (min), Table 2 value belongs to COC(=O)[C@H](Cc1ccccc1)NC(=O)[C@@H](N)CC(=O)O [Example 20] (H-Asp-Phe-OMe) ?
5.5

Which Solubilization (min), Table 2 value belongs to COC(=O)[C@H](Cc1ccccc1)NC(=O)[C@@H](N)CC(=O)O [Example 21] (H-Asp-Phe-OMe) ?
5.5

Which Solubilization (min), Table 2 value belongs to COC(=O)[C@H](Cc1ccccc1)NC(=O)[C@@H](N)CC(=O)O [Example 22] (H-Asp-Phe-OMe) ?
5.0

====

# experiment_notes: Method for Testing Solubilization: time required for completely dissolving crushed α-APM sample in water
# Assay type: physicochemical
# condition_details: 250 mg crushed sample in 250 ml purified water, 26±2° C., magnetic stirrer 350-360 rpm, stirring and standing alternated every 30 seconds
# Procedure: Crushed α-APM sample (250 mg) is poured into 250 ml of purified water at 26±2° C. with stirring by a magnetic stirrer at 350- 360 rpm. Stirring and standing are alternately repeated for every 30 seconds and the time required for completely dissolving the sample is measured.
Residues, ends and D or L forms follow the SMILES beside them.
metric: time required for completely dissolving the sample (solubilization test) (min)
Just the number please, in min, no unit attached.

Which time required for completely dissolving the sample (solubilization test) value belongs to COC(=O)[C@H](Cc1ccccc1)NC(=O)[C@@H](N)CC(=O)O [Example 11] (H-Asp-Phe-OMe) ?
6.5

Which time required for completely dissolving the sample (solubilization test) value belongs to COC(=O)[C@H](Cc1ccccc1)NC(=O)[C@@H](N)CC(=O)O [compound 8, reference compound] (H-Asp-Phe-OMe) ?
12.5

Which time required for completely dissolving the sample (solubilization test) value belongs to COC(=O)[C@H](Cc1ccccc1)NC(=O)[C@@H](N)CC(=O)O [Example 13] (H-Asp-Phe-OMe) ?
5.5

Which time required for completely dissolving the sample (solubilization test) value belongs to COC(=O)[C@H](Cc1ccccc1)NC(=O)[C@@H](N)CC(=O)O [compound 1, reference compound] (H-Asp-Phe-OMe) ?
12.5

Which time required for completely dissolving the sample (solubilization test) value belongs to COC(=O)[C@H](Cc1ccccc1)NC(=O)[C@@H](N)CC(=O)O [Example 12] (H-Asp-Phe-OMe) ?
5.5

Which time required for completely dissolving the sample (solubilization test) value belongs to COC(=O)[C@H](Cc1ccccc1)NC(=O)[C@@H](N)CC(=O)O [compound 7, reference compound] (H-Asp-Phe-OMe) ?
13.5

Which time required for completely dissolving the sample (solubilization test) value belongs to COC(=O)[C@H](Cc1ccccc1)NC(=O)[C@@H](N)CC(=O)O [Example 14] (H-Asp-Phe-OMe) ?
6.5

Which time required for completely dissolving the sample (solubilization test) value belongs to COC(=O)[C@H](Cc1ccccc1)NC(=O)[C@@H](N)CC(=O)O [compound 2, reference compound] (H-Asp-Phe-OMe) ?
11.5

Which time required for completely dissolving the sample (solubilization test) value belongs to COC(=O)[C@H](Cc1ccccc1)NC(=O)[C@@H](N)CC(=O)O [compound 9, reference compound] (H-Asp-Phe-OMe) ?
12
